# study-system: Prostaglandin G/H synthase 1 (Rattus norvegicus, UniProt Q63921); note: assay procedure not described here
# Sequence (Q63921 whole entry): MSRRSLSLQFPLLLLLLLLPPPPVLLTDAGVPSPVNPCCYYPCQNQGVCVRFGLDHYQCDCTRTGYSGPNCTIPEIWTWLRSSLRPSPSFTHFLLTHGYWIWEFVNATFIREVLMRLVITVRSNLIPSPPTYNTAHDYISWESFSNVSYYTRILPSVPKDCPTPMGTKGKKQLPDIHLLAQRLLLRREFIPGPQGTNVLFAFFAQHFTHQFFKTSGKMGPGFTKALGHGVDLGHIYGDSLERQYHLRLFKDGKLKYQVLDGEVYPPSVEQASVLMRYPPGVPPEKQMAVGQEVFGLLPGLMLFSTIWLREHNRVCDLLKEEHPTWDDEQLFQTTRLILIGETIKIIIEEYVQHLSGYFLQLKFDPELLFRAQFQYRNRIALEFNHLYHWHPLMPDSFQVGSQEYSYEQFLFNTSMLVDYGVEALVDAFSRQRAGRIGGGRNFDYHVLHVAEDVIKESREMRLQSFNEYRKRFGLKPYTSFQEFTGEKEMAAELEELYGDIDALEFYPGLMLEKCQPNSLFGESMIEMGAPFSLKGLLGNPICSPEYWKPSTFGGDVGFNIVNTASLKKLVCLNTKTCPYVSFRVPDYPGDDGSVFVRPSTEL
# Type: functional
experimental-endpoint: AC50

                                   molecule  experimental_endpoint  value_observed
0  C[C@@H](NCCCc1cccc(C(F)(F)F)c1)c1cccc2ccccc12                   AC50         > 30 µM
1  Nc1ncn([C@H]2C[C@H](O)[C@@H](CO)O2)c(=O)n1 [DECITABINE]                   AC50         > 30 µM

Could you share which AC50 value was measured for CC1OC2(CS1)CN1CCC2CC1 (stereo not given) [CEVIMELINE] ?
> 10 µM

Entry to check: CC(C)NCC(O)c1ccc(O)c(O)c1 (stereo not given) [ISOPROTERENOL]
> 30 µM

Now consider COc1cc2nc(N3CCN(C(=O)C4CCCO4)CC3)nc(N)c2cc1OC (stereo not given) [TERAZOSIN] .
> 30 µM

---

# study-system: Vasopressin V1a receptor (Homo sapiens); note: assay procedure not described here
# Sequence (P37288 whole entry): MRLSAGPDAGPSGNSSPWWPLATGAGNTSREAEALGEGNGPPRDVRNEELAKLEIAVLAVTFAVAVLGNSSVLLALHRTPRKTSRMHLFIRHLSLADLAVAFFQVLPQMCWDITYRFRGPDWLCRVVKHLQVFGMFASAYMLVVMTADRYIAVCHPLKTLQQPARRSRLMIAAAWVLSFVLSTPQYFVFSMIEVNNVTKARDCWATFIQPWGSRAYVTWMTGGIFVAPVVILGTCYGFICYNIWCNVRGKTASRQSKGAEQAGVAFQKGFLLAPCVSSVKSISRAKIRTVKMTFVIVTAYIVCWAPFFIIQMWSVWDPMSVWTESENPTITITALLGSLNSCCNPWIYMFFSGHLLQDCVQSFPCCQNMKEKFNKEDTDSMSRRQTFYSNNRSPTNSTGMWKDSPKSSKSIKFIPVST
experimental-endpoint: AC50

Look over these answered cases.
In [3]: df
Out[3]:
                                   molecule  experimental_endpoint  value_observed
0  Cc1cccc(N2CC(CO)OC2=O)c1 (centres undefined)                   AC50         > 30 µM
1  CC(C)COCC(CN(Cc1ccccc1)c1ccccc1)N1CCCC1 (centres undefined)                   AC50         > 30 µM
2  C[C@H]1c2cccc(O)c2C(=O)C2=C(O)[C@]3(O)C(=O)C(C(N)=O)=C(O)[C@@H](N(C)C)[C@@H]3[C@@H](O)[C@@H]21                   AC50         > 10 µM

For the next question, use this molecule.
Would you mind telling me what AC50 value was observed for CC(=O)SC[C@@H](C)C(=O)N1CCC[C@H]1C(=O)N[C@@H](Cc1ccccc1)C(=O)O ?
> 30 µM

---

Data export: AC50 values recorded with Gamma-aminobutyric acid receptor subunit alpha-1 (Rattus norvegicus).
Sequence (P62813 whole entry): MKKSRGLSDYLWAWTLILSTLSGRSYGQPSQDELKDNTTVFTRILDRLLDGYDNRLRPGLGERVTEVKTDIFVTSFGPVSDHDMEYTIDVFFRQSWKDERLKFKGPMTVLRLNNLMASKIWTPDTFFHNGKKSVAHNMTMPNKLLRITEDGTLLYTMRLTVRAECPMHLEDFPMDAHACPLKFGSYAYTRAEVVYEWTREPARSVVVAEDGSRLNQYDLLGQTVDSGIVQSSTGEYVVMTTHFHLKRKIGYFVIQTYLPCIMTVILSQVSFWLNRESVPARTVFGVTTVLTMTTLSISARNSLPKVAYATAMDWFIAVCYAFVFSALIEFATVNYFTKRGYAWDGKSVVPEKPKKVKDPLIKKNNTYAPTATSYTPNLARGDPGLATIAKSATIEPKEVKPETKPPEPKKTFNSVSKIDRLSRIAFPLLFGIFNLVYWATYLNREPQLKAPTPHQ

molecule	AC50
O=C1C(CC[S+]([O-])c2ccccc2)C(=O)N(c2ccccc2)N1c1ccccc1 (configuration not stated) [SULFINPYRAZONE]	> 10 µM
CC(C)[C@H](N)C(=O)OCC(CO)OCn1cnc2c(=O)nc(N)[nH]c21 (some centres not stated) [VALGANCICLOVIR]	> 30 µM
CC1=C(C)C(=O)C(C(CCCCCC(=O)O)c2ccccc2)=C(C)C1=O (configuration not stated) [SERATRODAST]	> 30 µM
CN1CCN(C2=Nc3ccccc3Oc3ccc(Cl)cc32)CC1 [LOXAPINE]	> 10 µM

Let us move to another entry and its AC50.
Please give the measured AC50 for this molecule: N[C@@H](CC(=O)N1CCn2c(nnc2C(F)(F)F)C1)Cc1cc(F)c(F)cc1F [SITAGLIPTIN]
> 10 µM

---

# AC50 per record follows
# study-system: Amine oxidase [flavin-containing] A (Homo sapiens, UniProt P21397); note: assay procedure not described here
# Sequence (P21397 whole entry): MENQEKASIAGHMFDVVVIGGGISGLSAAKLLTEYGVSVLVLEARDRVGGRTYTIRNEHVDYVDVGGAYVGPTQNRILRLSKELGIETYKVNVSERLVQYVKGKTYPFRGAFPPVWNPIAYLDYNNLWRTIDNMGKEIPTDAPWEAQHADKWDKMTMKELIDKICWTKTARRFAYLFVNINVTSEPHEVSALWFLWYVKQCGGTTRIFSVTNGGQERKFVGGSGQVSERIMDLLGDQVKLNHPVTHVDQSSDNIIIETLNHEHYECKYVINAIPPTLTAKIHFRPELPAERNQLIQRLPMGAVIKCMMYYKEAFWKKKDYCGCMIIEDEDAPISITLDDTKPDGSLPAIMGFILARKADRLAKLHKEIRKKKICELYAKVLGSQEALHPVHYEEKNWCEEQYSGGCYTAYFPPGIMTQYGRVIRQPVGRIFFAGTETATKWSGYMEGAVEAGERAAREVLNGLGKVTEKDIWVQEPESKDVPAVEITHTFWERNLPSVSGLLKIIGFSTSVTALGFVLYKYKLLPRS
# Format: functional

                                   compound  value_observed
0  CC(C(=O)O)c1ccc2c(c1)[nH]c1ccc(Cl)cc12 (stereo not given)         > 10 µM
1     CN1CCN(C2=Nc3ccccc3Oc3ccc(Cl)cc32)CC1         > 10 µM

Give its AC50 value. Item: Nc1ncn([C@H]2C[C@H](O)[C@@H](CO)O2)c(=O)n1
> 30 µM

And for C[C@]12CCC(=O)C(O)=C1CC[C@@H]1[C@@H]2CC[C@]2(C)C(=O)CC[C@@H]12 ?
> 30 µM

Param item: CCCCCCCCCCCCCCCCCCCCCC(=O)Nc1ccn([C@@H]2O[C@H](CO)[C@@H](O)[C@@H]2O)c(=O)n1
> 30 µM
